test: Selectivity index, ratio of IC50 for CHO cells to IC50 for chloroquine-sensitive asexual erythrocytic stage of Plasmodium falciparum NF54; format: toxicity, cell-based; settings: hamster; read-out: Ratio IC50
selectivity ratio: recorded values
Answer with a number only.

>  <COMPOUND>
OCCCCNc1cccc2ncccc12

>  <REPORTED RESULT>
23

$$$$

Field: next compound
So, Cc1nc2ccccc2cc1N1CCCC1C (configuration not stated) ? Its selectivity ratio was 22

---

system: Aspergillus flavus; assay: Antifungal activity against Aspergillus flavus IHEM 5785 at 600 ug/dish after 1 day by disk diffusion method; format: functional, organism-based; conditions: 600 ug/dis
The source made the active and inactive calls. The rule behind the calls is not given here.
ENDPOINT: Activity

Recorded results for 5 molecules are shown here.
>  <MOLECULE>
CC(O)CCCNc1cnc2ccccc2c1 (stereo unspecified)

>  <Activity>
Active

$$$$
>  <MOLECULE>
OCCCCNc1ccc2ncccc2c1

>  <Activity>
Active

$$$$
>  <MOLECULE>
OCCCCNc1cccc2cccnc12

>  <Activity>
Active

$$$$
>  <MOLECULE>
CC(O)CCCNc1ccc2ncccc2c1 (stereo unspecified)

>  <Activity>
Active

$$$$
>  <MOLECULE>
CC(C)(O)CCCNc1cccc2cccnc12

>  <Activity>
Active

$$$$

So, CC(C)(O)CCCNc1cccc2ncccc12 ? Its Activity was Active
